Origin of values: the supplement of paper PMC9112550

Test system: Escherichia coli TOP10;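 further: peptides expressed intracellularly from a pBAD plasmid library in pooled LB shake-flask culture, induced with 0.3% L-arabinose, DNA abundance read by NGS, three biological replicates, DESeq2 with apeglm shrinkage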
Experiment: shrunken log2 fold change of peptide-encoding DNA abundance (4.5 h post-induction vs induction); higher = less antimicrobial activity (less host growth inhibition)
Details: time post-induction: 4.5 h; library: site-saturation at positions 5, 18, 19, 20
For each of the sequences below, state its shrunken log2 fold change.
Answers are plain numbers.

Use these answered entries as a reference point.
- biosequence: "RRIRYRPPRLPRPRPRPYFRPRP"
  shrunken log2 fold change: -0.836
- biosequence: "RRIRSRPPRLPRPRPRPKMEPRP"
  shrunken log2 fold change: -0.0294
- biosequence: "RRIRQRPPRLPRPRPRPANCPRP"
  shrunken log2 fold change: 0.0322

Please give shrunken log2 fold change for each item listed below.
1. RRIRPRPPRLPRPRPRPLHDPRP
2. RRIRNRPPRLPRPRPRPCTSPRP
3. RRIRVRPPRLPRPRPRPERCPRP
4. RRIRGRPPRLPRPRPRPQMMPRP

**A:**
1. -0.034
2. -0.0712
3. 0.187
4. 0.112

Please give shrunken log2 fold change for each item listed below.
1. RRIRDRPPRLPRPRPRPQSQPRP
2. RRIRHRPPRLPRPRPRPMQGPRP
3. RRIRWRPPRLPRPRPRPVPQPRP

**A:**
0.112
-0.0154
0.282
